Measured values drawn from PubChem BioAssay AID1745844 for this set.

- Test system: rodent lifetime carcinogenesis bioassay, tumor incidence TD50
- Assay method text: carcinogenic potency in animals, long-term in vivo studies, CPDB compilation (AID 1745844)
- Test conditions: rat; strain Fischer 344; males; by gavage; site: kidney; lesion: tubular-cell adenoma + tubular-cell adenocarcinoma; dosed 103 weeks; study length 103 weeks

# Molecule smiles, TD50
records = [
    ("ClC=C(Cl)Cl", "2780 mg/kg/day"),
]

###

- Test system: rodent lifetime carcinogenesis bioassay, tumor incidence TD50
- Assay method text: carcinogenic potency in animals, long-term in vivo studies, CPDB compilation (AID 1745844)
- Test conditions: mouse; strain Charles River CD1; males; in feed; site: all sites; lesion: malignant lymphoma, lymphocytic type; dosed 104 weeks; study length 104 weeks
Activity calls are given as the source filed them. The rule behind the calls is not given here.
Assay readout: TD50

# Molecule, Result
records = [
    ("O=C(O)C1=NN(c2ccc(S(=O)(=O)O)cc2)C(=O)C1N=Nc1ccc(S(=O)(=O)O)cc1 (stereo unspecified)", "11800 mg/kg/day (inactive)"),
]

###

- Test system: rodent lifetime carcinogenesis bioassay, tumor incidence TD50
- Assay method text: carcinogenic potency in animals, long-term in vivo studies, CPDB compilation (AID 1745844)
- Test conditions: mouse; strain albino; males; in feed; site: liver; lesion: hepatoma; dosed 52 weeks; study length 84 weeks

# Molecule smiles, TD50
records = [
    ("CN(C)c1ccc(C(=N)c2ccc(N(C)C)cc2)cc1", "39.2 mg/kg/day"),
]

###

- System: rodent lifetime carcinogenesis bioassay, tumor incidence TD50
- Assay method text: carcinogenic potency in animals, long-term in vivo studies, CPDB compilation (AID 1745844)
- Test conditions: mouse; strain B6C3F1; males; in feed; site: forestomach; lesion: squamous-cell carcinoma + squamous-cell papilloma; dosed 104 weeks; study length 105 weeks
Assay readout: TD50

# Molecule smiles, Target system, Result
rows = [
    ("OCC(CO)(CBr)CBr", "rodent lifetime carcinogenesis bioassay, tumor incidence TD50", "581 mg/kg/day"),
]

###

- Test system: rodent lifetime carcinogenesis bioassay, tumor incidence TD50
- Assay method text: carcinogenic potency in animals, long-term in vivo studies, CPDB compilation (AID 1745844)
- Test conditions: mouse; strain BALB/cLacDp; females; in feed; site: liver; lesion: hepatocellular adenoma; dosed 80 weeks; study length 119 weeks

# Molecule smiles, TD50
records = [
    ("O=C1c2ccccc2CN2C(=O)c3ccccc3CN12", "1150 mg/kg/day"),
]

###

- Test system: rodent lifetime carcinogenesis bioassay, tumor incidence TD50
- Assay method text: carcinogenic potency in animals, long-term in vivo studies, CPDB compilation (AID 1745844)
- Test conditions: mouse; strain B6C3F1; males; inhaled; site: forestomach; lesion: squamous-cell carcinoma + squamous-cell papilloma; dosed 52 weeks; study length 104 weeks
Assay readout: TD50

# Molecule smiles, Result
measured = [
    ("C=CC=C", "42.8 mg/kg/day"),
]

###

- System: rodent lifetime carcinogenesis bioassay, tumor incidence TD50
- Assay method text: carcinogenic potency in animals, long-term in vivo studies, CPDB compilation (AID 1745844)
- Test conditions: mouse; strain Charles River CD1; males; in drinking water; site: liver; lesion: hepatocellular adenoma; dosed 52 weeks; study length 52 weeks
Calls of active or inactive are those of the source. No rule for the calls is given here.

# Molecule smiles, TD50
measured = [
    ("CN(C)N", "26.7 mg/kg/day (inactive)"),
]

###

- System: rodent lifetime carcinogenesis bioassay, tumor incidence TD50
- Assay method text: carcinogenic potency in animals, long-term in vivo studies, CPDB compilation (AID 1745844)
- Test conditions: mouse; strain B6C3F1; females; in feed; site: all sites; lesion: angiosarcoma + hemangioma; dosed 103 weeks; study length 104 weeks

# Molecule smiles, Target system, TD50
measured = [
    ("Nc1ccccc1-c1ccccc1", "rodent lifetime carcinogenesis bioassay, tumor incidence TD50", "1120 mg/kg/day"),
]

###

- System: rodent lifetime carcinogenesis bioassay, tumor incidence TD50
- Assay method text: carcinogenic potency in animals, long-term in vivo studies, CPDB compilation (AID 1745844)
- Test conditions: mouse; strain CF-1; males; in feed; site: any site (literature study); lesion: several types; types named in the paper; dosed 123 weeks; study length 123 weeks
Assay readout: TD50 (mg/kg/day)

# Molecule smiles, Unit tag, Number
records = [
    ("Clc1ccc(C(c2ccc(Cl)cc2)C(Cl)Cl)cc1", "mg/kg/day", 33.2),
]

###

- Test system: rodent lifetime carcinogenesis bioassay, tumor incidence TD50
- Assay method text: carcinogenic potency in animals, long-term in vivo studies, CPDB compilation (AID 1745844)
- Test conditions: rat; strain Sprague-Dawley Spartan; females; in feed; site: any site (literature study); lesion: several types; types named in the paper; dosed 57 weeks; study length 57 weeks
Activity calls are given as the source filed them. No rule for the calls is given here.

# Molecule smiles, TD50
records = [
    ("Brc1cc(-c2ccc(Br)c(Br)c2Br)cc(Br)c1Br", "5.91 mg/kg/day (inactive)"),
]

###

- Tested on: rodent lifetime carcinogenesis bioassay, tumor incidence TD50
- Assay method text: carcinogenic potency in animals, long-term in vivo studies, CPDB compilation (AID 1745844)
- Test conditions: rat; strain Fischer 344; females; in feed; site: multiple organs + spleen; lesion: mononuclear-cell leukemia; dosed 104 weeks; study length 107 weeks

# Compound, Target system, TD50
rows = [
    ("ClC1(Cl)C2(Cl)C3(Cl)C4(Cl)C(Cl)(Cl)C5(Cl)C3(Cl)C1(Cl)C5(Cl)C24Cl (stereo unspecified)", "rodent lifetime carcinogenesis bioassay, tumor incidence TD50", "5.97 mg/kg/day"),
]

###

- Test system: rodent lifetime carcinogenesis bioassay, tumor incidence TD50
- Assay method text: carcinogenic potency in animals, long-term in vivo studies, CPDB compilation (AID 1745844)
- Test conditions: hamster; strain Syrian Golden; females; in feed; site: any site (literature study); lesion: several types; types named in the paper; dosed 95 weeks; study length 104 weeks
The source made the active and inactive calls. How the calls were made is not given here.

# Molecule smiles, TD50
data = [
    ("O=c1ccc2ccccc2o1", "5520 mg/kg/day (inactive)"),
]

###

- Tested on: rodent lifetime carcinogenesis bioassay, tumor incidence TD50
- Assay method text: carcinogenic potency in animals, long-term in vivo studies, CPDB compilation (AID 1745844)
- Test conditions: mouse; strain B6C3F1; females; i.p.; site: all sites; lesion: leukemia + lymphoma, histiocytic type + lymphoma; dosed 52 weeks; study length 86 weeks

# Molecule, Target system, TD50 / mg/kg/day
records = [
    ("CC(CN1CC(=O)NC(=O)C1)N1CC(=O)NC(=O)C1 (stereo unspecified)", "rodent lifetime carcinogenesis bioassay, tumor incidence TD50", 23.7),
]

###

- Test system: rodent lifetime carcinogenesis bioassay, tumor incidence TD50
- Assay method text: carcinogenic potency in animals, long-term in vivo studies, CPDB compilation (AID 1745844)
- Test conditions: mouse; strain B6C3F1; females; by gavage; site: stomach; lesion: squamous-cell carcinoma; dosed 103 weeks; study length 105 weeks

# Molecule, Target system, TD50
rows = [
    ("c1cc(OCC2CO2)cc(OCC2CO2)c1 (stereo unspecified)", "rodent lifetime carcinogenesis bioassay, tumor incidence TD50", "36.3 mg/kg/day"),
]

###

- System: rodent lifetime carcinogenesis bioassay, tumor incidence TD50
- Assay method text: carcinogenic potency in animals, long-term in vivo studies, CPDB compilation (AID 1745844)
- Test conditions: mouse; strain Swiss albino; females; in drinking water; site: blood vessels; lesion: angiosarcoma; dosed 72 weeks; study length 72 weeks
Assay readout: TD50

# Molecule smiles, Target system, Assay readout, Result
rows = [
    ("CN(C)N", "rodent lifetime carcinogenesis bioassay, tumor incidence TD50", "TD50", "3.57 mg/kg/day"),
]

###

- System: rodent lifetime carcinogenesis bioassay, tumor incidence TD50
- Assay method text: carcinogenic potency in animals, long-term in vivo studies, CPDB compilation (AID 1745844)
- Test conditions: rat; strain IcoIbm:OFA (Sprague-Dawley derived); females; inhaled; site: nasal cavity, olfactory epithelium; lesion: malignant tumor; dosed 102 weeks; study length 102 weeks
Assay readout: TD50

# Molecule smiles, Result
records = [
    ("COc1ccc(C(=O)Nc2c(Cl)cncc2Cl)cc1OC1CCCC1", "1.22 mg/kg/day"),
]

###

- System: rodent lifetime carcinogenesis bioassay, tumor incidence TD50
- Assay method text: carcinogenic potency in animals, long-term in vivo studies, CPDB compilation (AID 1745844)
- Test conditions: mouse; strain B6C3F1; females; oral dosing; site: any site (literature study); lesion: several types; types named in the paper; dosed 76 weeks; study length 76 weeks
Activity calls are given as the source filed them. The rule behind the calls is not given here.
Assay readout: TD50

# Compound, Assay readout, Result
records = [
    ("c1ccc2sc(SN3CCOCC3)nc2c1", "TD50", "386 mg/kg/day (inactive)"),
    ("CCCCN(CC)C(=O)SCCC", "TD50", "251 mg/kg/day (inactive)"),
    ("CC(Oc1cc(Cl)c(Cl)cc1Cl)C(=O)O (centres undefined)", "TD50", "52.6 mg/kg/day (inactive)"),
    ("[S-]c1nc2ccccc2s1.[S-]c1nc2ccccc2s1.[Zn+2]", "TD50", "2790 mg/kg/day (inactive)"),
    ("NC(=O)Cc1cccc2ccccc12", "TD50", "213 mg/kg/day (inactive)"),
    ("Clc1ccc(C(c2ccc(Cl)cc2)C(Cl)Cl)cc1", "TD50", "250 mg/kg/day"),
    ("C[N+](C)(C)CCCl", "TD50", "57.4 mg/kg/day"),
    ("COC(C(=O)O)c1ccccc1 (centres undefined)", "TD50", "157 mg/kg/day (inactive)"),
    ("Cc1cc(O)cc(C)c1N(C)C", "TD50", "265 mg/kg/day (inactive)"),
    ("NC(=S)Nc1cccc2ccccc12", "TD50", "5.34 mg/kg/day (inactive)"),
    ("CCCCCCCCS(=O)C(C)Cc1ccc2c(c1)OCO2 (centres undefined)", "TD50", "100 mg/kg/day"),
    ("CCCCN(CCCC)C(=S)[S-].CCCCN(CCCC)C(=S)[S-].[Zn+2]", "TD50", "731 mg/kg/day (inactive)"),
    ("CC(C)CCCCCOC(=O)COc1ccc(Cl)cc1Cl", "TD50", "24.6 mg/kg/day (inactive)"),
    ("CN(C)C(=O)Nc1ccc(Cl)c(Cl)c1", "TD50", "388 mg/kg/day (inactive)"),
]
